biological target: rat GLP-1 receptor (rat) (UniProt P32301); test: cell-based or functional assay
Sequence (P32301 22-463): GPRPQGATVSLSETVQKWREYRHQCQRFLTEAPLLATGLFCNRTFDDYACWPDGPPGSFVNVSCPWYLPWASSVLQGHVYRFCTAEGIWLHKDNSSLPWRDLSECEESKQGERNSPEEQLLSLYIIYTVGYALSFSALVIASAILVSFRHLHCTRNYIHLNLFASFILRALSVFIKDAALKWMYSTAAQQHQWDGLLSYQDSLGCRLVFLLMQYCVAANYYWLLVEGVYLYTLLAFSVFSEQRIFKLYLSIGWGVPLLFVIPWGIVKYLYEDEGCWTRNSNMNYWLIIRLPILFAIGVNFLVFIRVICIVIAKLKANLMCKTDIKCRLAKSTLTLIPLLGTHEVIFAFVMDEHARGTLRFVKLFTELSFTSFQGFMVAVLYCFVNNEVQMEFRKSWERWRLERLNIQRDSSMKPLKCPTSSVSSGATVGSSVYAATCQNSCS
Readout name: cAMP EC50 (nM)

As a guide, the following entries are already answered.
// lookup cAMP EC50 for IP367 (Fc fusion) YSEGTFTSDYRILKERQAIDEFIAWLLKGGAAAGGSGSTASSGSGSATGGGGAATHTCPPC
8

// lookup cAMP EC50 for IP396 (Fc fusion) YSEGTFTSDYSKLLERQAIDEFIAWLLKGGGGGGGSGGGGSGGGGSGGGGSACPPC
0.057

// lookup cAMP EC50 for IP389 (Fc fusion) YSEGTFISDYSIAMDKIHQQDFVNWLLAQKGGGGGSGGGGSGGGGSGGGGSGGGGSGGGGSGGGGSACPPC
9.9

// lookup cAMP EC50 for IP226 (Fc fusion) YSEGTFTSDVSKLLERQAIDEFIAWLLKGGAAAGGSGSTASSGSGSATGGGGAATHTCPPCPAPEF
0.061

// lookup cAMP EC50 for IP301 (Fc fusion) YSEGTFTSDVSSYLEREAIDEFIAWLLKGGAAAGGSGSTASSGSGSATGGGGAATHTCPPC
0.058

// lookup cAMP EC50 for IP351 (Fc fusion) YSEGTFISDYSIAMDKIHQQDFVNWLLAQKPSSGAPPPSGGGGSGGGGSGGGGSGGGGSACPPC
210

P. IP343 (Fc fusion) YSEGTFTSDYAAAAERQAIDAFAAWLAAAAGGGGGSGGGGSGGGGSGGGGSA
Q. IP412 (Fc fusion) YSEGTFTSDYSKLLEEEANRLFIEWLLAGGGGGGSGGGGSGGGGSGGGGSATHTCPPC
Returns: the label, P or Q , whose recorded cAMP EC50 is the lower number. I would appreciate it if you answered with the label of your choice.
Q
(Q: 0.022 nM, P: 360 nM)

Entry source: patent US20160185837A1
